# Procedure text: viability loss with induced miR-34 in A549 – imaging, A549 dox-inducible miR-34, nuclei and caspase counts, primary screen (AID 1347080); note: test concentration not given here
# Applied conditions: A549 miR-34 inducible, Hoechst nuclei count, 48 h; measured here: total cells with miR-34 induction; stronger effect = lower value
Threshold 8000. cell count below it: t. cell count at it or above: f.

* CC1OC(O)C(O)C(O)C1O (stereo not given) | t
* CN([C@@H](Cc1ccc(OS(=O)(=O)c2cccc3cnccc23)cc1)C(=O)N1CCN(c2ccccc2)CC1)S(=O)(=O)c1cccc2cnccc12 | t

# ---- query molecule ----
Is cell count of "Oc1cc(O)cc(C=Cc2ccc(O)c(O)c2)c1" strictly below 8000?
f

Data origin: PubChem BioAssay
